tested on: Plasmodium berghei; test: Screen against P. berghei liver stage (PbLuc), transformed with Luciferase, at 10uM; format: functional, HepG2; conditions: tested at 10 uM
The campaign covered roughly 69,000 compounds. About 8,600 (12%) showed an effect of 50% or more. What follows is part of a selection rich in strong results, with near analogues and random picks from the rest.
Decision: INHIBITION beneath 20% gives Criterion met; INHIBITION meeting or exceeding 20% gives Criterion not met.

Request: In the record for Cc1cc(C)n(CC2CCCN2C(=O)c2c[nH]c(=O)c(Cl)c2)n1 (stereo unspecified) , is INHIBITION less than 20%?
Response: Criterion not met

Request: Problem: For the compound Cc1cnc(CNS(=O)(=O)CCC2CCCO2)o1 (stereo unspecified) , is INHIBITION under 20%?
Response: Criterion not met

Request: # strict comparison: is reported INHIBITION < 20%? input = COCC1CC2(CCNCC2)CN1Cc1csc(C)n1 (stereo unspecified)
Response: Criterion met

Request: Would you kindly verify if INHIBITION of c1ccc(Cc2nnc(CN3CCOC(Cn4cccn4)C3)o2)cc1 (stereo unspecified) is strictly less than 20%?
Response: Criterion met

Request: Determine whether this compound shows INHIBITION lower than 20% (ties excluded): c1cnc(N2CCC3(CCN(CC4CCCC4)CC3)C2)nc1
Response: Criterion not met

Request: Decide: INHIBITION of c1cnc(N2CCCC3(CCN(c4ncccn4)C3)C2)nc1 (stereo unspecified) strictly below 20%?
Response: Criterion not met

Request: # TODO verify INHIBITION < 20% strictly for this compound: CC(C)CC(NC(=O)c1cccs1)c1nc2cccnc2n1C (stereo unspecified)
Response: Criterion met

Request: # strict comparison: is reported INHIBITION < 20%? input = c1cnc(N2CCCC3(CCN(Cc4ccncc4)C3)C2)nc1 (stereo unspecified)
Response: Criterion not met

Request: Is 20% strictly greater than the compound's reported INHIBITION? compound: c1cnc(N2CCCC3(CCN(CC4CCC4)C3)C2)nc1 (stereo unspecified)
Response: Criterion not met

Request: Say whether its INHIBITION is strictly beneath 20%. Entry: CCOc1ncccc1NC(=O)NC1CCN(S(C)(=O)=O)CC1
Response: Criterion not met

Request: Does C[C@H](NC(=O)c1cccc(CCC(C)(C)O)c1)C(N)=O have INHIBITION strictly under 20%?
Response: Criterion met

====

test system: Plasmodium berghei; experiment: Screen against P. berghei liver stage (PbLuc), transformed with Luciferase, at 10uM; assay type: functional, HepG2; settings: tested at 10 uM
Screen size: about 69,000 compounds; about 8,600 (12%) showed an effect of 50% or more. This excerpt belongs to a sample that is enriched for strong results.
Kindly state INHIBITION for each of the entries shown.
Numeric only. Scale: %

Please fill in: INHIBITION reported for CCCNC(=O)c1nn(CC)cc1NC(=O)c1c(C)nn(C)c1C = -4.56

Per the records, this compound ( CCC(=O)N1CCC(Cc2cnc(Nc3cnccn3)cn2)CC1 ) has INHIBITION equal to 16.5

Please fill in: INHIBITION reported for CN(CC(=O)N1CCOCC(CO)C1)Cc1ccccn1 (stereo unspecified) = 19.5

Briefly, INHIBITION measured for COc1ccc(CC2CN(C(=O)c3ocnc3C)CCO2)cc1 (stereo unspecified) : 46.4

Data point: CN(C)c1cc(C(=O)N2CCCCC2)ccn1 ; INHIBITION = 2.7

So for Cc1n[nH]c(CCC(=O)N2CCOC(Cc3ccccc3)C2)c1C (stereo unspecified) , the logged INHIBITION turned out to be 7.19

Lab note: COCCC(=O)N1CCC2(CC1)CN(C(C)=O)Cc1ccccc1O2 gave INHIBITION of 14.805

Data point: Cc1ccnn1CCC(=O)N1CCOC(CCc2ccccc2)C1 (stereo unspecified) ; INHIBITION = 44.3

Reported INHIBITION of Cc1nc(C(=O)N2CCOC(Cc3ccccc3)C2)co1 (stereo unspecified) : -48.5

The reported INHIBITION of the compound COCCCn1ccc(NC(=O)NCc2cccc(N(C)C)c2)n1 was 21.5

Entry Cc1ccccc1CN(C)C(=O)CCc1nc(-c2nnc[nH]2)no1 , INHIBITION reported as 13.7

====

Record form. Attribute: INHIBITION. Fill in for each entry.
test system: Plasmodium berghei; test: Screen against P. berghei liver stage (PbLuc), transformed with Luciferase, at 10uM; assay type: functional, HepG2; conditions: tested at 10 uM
Out of some 69,000 compounds screened, about 8,600 (12%) showed an effect of 50% or more. Shown is part of a subset that was picked to be rich in strong results.

Looking up CC(=O)Nc1nc(C(=O)NCc2ccc(N3CCCCCC3)nc2)cs1 , I see its INHIBITION listed as 67.2%

// INHIBITION value for CN1C(=O)c2ccc(C(=O)N(Cc3cnn(C)c3)C3CC3)cc2C1=O : 23.8%

Entry Cc1cccc(C(=O)NCc2ccc(N3CCCCC3)nc2)n1 ; INHIBITION = 8.48%

// INHIBITION value for FC(F)(F)COCCN1CCc2cncnc2C1 : 64%

# compound COc1ccc(-c2nnc(C(C)N3CCOCC3)o2)cc1 (centres undefined) ; its INHIBITION = 37.5%

Consider CSc1nccc(N2CCC3(CCCN(CCc4ccccc4)C3)C2)n1 (centres undefined) . Its measured INHIBITION is 85.2%

Record O=C(NCC1CC1)c1nc2c(o1)CN(CC1CC1)C2 , field INHIBITION: -48.4%

The reported value for CCN(CC1CCOC1)C(=O)c1cnc2onc(C)c2c1 (centres undefined) in terms of INHIBITION is 34.15%

The reported INHIBITION of the compound COCc1cc(N2CCN(Cc3ccncc3)CC2)n2nccc2n1 was 48.5%

get_value(item= O=C(NCCc1cccnc1)Nc1cc(C(F)(F)F)c[nH]c1=O , readout=INHIBITION) returns -12.6%

Data point: CCCn1c(C)c(CC(=O)NCCNC(C)=O)c2c1CC(C)(C)CC2=O ; INHIBITION = -4.52%

Recorded result, COCCC(=O)NCCn1nc(C2CCNC2)c2cccnc21 (centres undefined) , INHIBITION: 5.11%

For COCCN1C(=O)[C@@H]2CC[C@H]1CN(S(=O)(=O)c1ccc(OC)cc1)C2 the compound record lists INHIBITION as 1.56%

Reported INHIBITION of Cc1nc(CCN(C)C(=O)CCNC(=O)c2ccccc2F)no1 : 43.9%

Query Cc1ccc(C(NC(=O)CN2CCc3cncnc3C2)C2CC2)cc1 (centres undefined) yields INHIBITION of 34.2%

Per the record, CC(C)c1nc(CN(C)C(=O)CCNC(=O)c2ccccc2F)no1 has INHIBITION of 12.4%

INHIBITION recorded for this compound, CSc1nccc(N2CCC3(CCCN(Cc4ccc(F)cc4)C3)C2)n1 (centres undefined) , is 85.2%

CC(=O)c1ccc(N2CCN(C(=O)c3cc(C(C)C)nn3C)CC2)cc1 has a reported INHIBITION of 36.3%

# compound CCn1cc(CN2C[C@@H]3CCCN3C[C@@H]2CCSC)c(C)n1 ; its INHIBITION = 46.1%

Input COc1ccccc1CCN(C)C(C)c1nc(-c2cccnc2)no1 (centres undefined) . Output INHIBITION: 68.1%

According to the records, this compound CC(C)CC(=O)NCCn1nc(C2CCNC2)c2cccnc21 (centres undefined) displays INHIBITION of 44.8%

The compound listed as O=C(CCC1CCCC1)NCCn1nc(C2CCNC2)c2nccnc21 (centres undefined) shows INHIBITION equal to 67.1%

// recorded INHIBITION for CS(=O)(=O)NCc1cn2c(n1)CN(Cc1ccoc1)CC2 : -4.02%

Documented INHIBITION of CC(C)c1cc(C(=O)N2CCN(c3ccncc3)CC2)n(C)n1 : -106%

get_value(item= O=C(NCCn1nc(C2CCNC2)c2cccnc21)C1CC1 (centres undefined) , readout=INHIBITION) returns 13.5%

Reported INHIBITION of CC(=O)Nc1nc(C(=O)NCc2ccc(N3CCOCC3)nc2)cs1 : 19.4%

// INHIBITION value for Cc1ccc(OCc2occc2C(=O)N2CCOC(C(=O)O)C2)cc1 (centres undefined) : -0.71%

Record CCN1CCN(c2ccc(CNC(=O)c3ccc(Cl)o3)cn2)CC1 . Reported INHIBITION: 57.2%

response.value for CCN(Cc1nc(COC)no1)C(=O)CCNC(=O)c1ccccc1F (field: INHIBITION) = 58.1%

The recorded INHIBITION for CCCn1c(C)c(CC(=O)NCC(N)=O)c2c1CC(C)(C)CC2=O is -13.3%

The recorded INHIBITION for CSc1nccc(N2CCN(C)C3(CCNC(=O)CC3)C2)n1 (centres undefined) is -17.7%

In plain terms, CCOc1ccccc1CN(C)C(C)c1nc(-c2cccnc2)no1 (centres undefined) has a documented INHIBITION of 24.2%

Noted for CCN1CCN(c2ccc(CNC(=O)c3cnn(C)c3C)cn2)CC1 : its INHIBITION reads -15.5%

Data point: COc1ccc(S(=O)(=O)C(F)(F)F)cc1NC(=O)CSCC#N ; INHIBITION = 48.3%

According to the records, this compound CC(=O)Nc1nc(C(=O)NCc2ccc(N3CCCC3)nc2)cs1 displays INHIBITION of 13.3%

Field INHIBITION (entry Cc1ccc(OCc2occc2C(=O)N2CC[C@H](CO)[C@@H](O)C2)cc1 ) reads 26.6%

# compound O=S(=O)(N1CCOCC1)N1CCCC(c2ccccn2)C1 (centres undefined) ; its INHIBITION = 15.99%

Entry under test: CCN1CCN(c2ccc(CNC(=O)c3cc(C)on3)cn2)CC1 . Its INHIBITION was 25.6%

Input CC(C)(CN)NS(=O)(=O)c1cccc(F)c1F . Output INHIBITION: 19%

The origin of these recorded values is ChEMBL document CHEMBL4513216.
